biological target: T1, AAV8 (adeno-associated virus 8); assay: SPR, AAV amine-coupled to CM5 chip;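 note: nanobodies flowed as analyte at seven concentrations spanning 1–100 nM over immobilized AAV (500–800 RU), kinetic constants derived by fitting the binding curves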
T1 construct: also called adeno-associated virus serotype 8
Please mark yes (1) if the recorded koff is equal to or greater than 0.0006 s⁻¹, and no (0) if it falls below.

{"binder": "A4-078 (VHH) VHH: VQLQESGGGLVQPGGSLRLSCLASGTMFSLNTMGWYRQAPGKQRELVATVTRGGSTNYADFVKGRFTISRDNAKNTVYLQMNSLRPEDTAVYYCHVDEVRDSSWTTSNLWGQGTQVTVSS", "label.value": "yes (1)"}
{"binder": "A4-100 (VHH) VHH: VQLQESGGGLVQPGGSLRLSCAASGSIFVINTMGWYRQAPGKQRELVASLTRGGSTNYADSVKGRFTISRDNDKNTIYLQMNSLRPEDTAVYYCHVDEVRESTWTTSNIWGQGTQVTVSS", "label.value": "yes (1)"}
{"binder": "A4-088 (VHH) VHH: VQLQESGGGLVQTGGSLRLSCAASGSRFSLNTMGWYRQAPGKQRELVAAVTRGGNTNYGDFVKGRFTISRDNAKNTVYLQMNSLRPEDTAVYYCHVDELRESSWTTSNLWGQGTQVTVSS", "label.value": "yes (1)"}
{"binder": "A4-057 (VHH) VHH: VQLQESGGGLVQPGGSLRLSCAASGSIFSINTMGWYRQAPGKQREKVAAVTRGGSTNYADSVKGRFTISRDNAKNTVYLQMNSLRPEDTAVYYCHVDEVRQSSWTTSNLWGQGTQVTVSS", "label.value": "no (0)"}
{"binder": "A4-070 (VHH) VHH: VQLQESGGGLVQPGGSLRLSCAASGSIFSINSMGWYRQAPGKWRELVATVTRGGSTNYANSVKGRFTISRDNAKNTVYLQMNTLRPEDTAVYYCHLDEVRDSSWTTSNLWGQGTQVTVSS", "label.value": "no (0)"}
{"binder": "A4-055 (VHH) VHH: VQLQESGGGLVQPGGSLRLSCAASGSIFSINTMGWYRQAPGKQRELVAAVTRGGSTNYADSVKGRFTISRDNAKNTVYLQMNSLRPEDTAVYYCHVDEVRQSSWTTSNLWGQGTQVTVSS", "label.value": "no (0)"}
{"binder": "A4-053 (VHH) VHH: VQLQESGGGLVQPGGSLRLSCAASGSIFIINTMGWYRRAPGKQRELVAAVTRGGSTNYADSVKGRFTISRDNAKNTVYLQMNSLRPEDTAVYYCHVDEVRQSSWTTSNLWGQGTQVTVSS", "label.value": "yes (1)"}
{"binder": "A4-064 (VHH) VHH: VQLQESGGGLVQSGGSLRLSCAASGRNFSLNTVGWYRQAPGKQRELVATVTSGGGTNYAGSVKGRFTISRDNAKNTVYLQMNSLRPEDTAVYYCHVDEVRESTWTTSNLWGQGTQVTVSS", "label.value": "yes (1)"}
{"binder": "A4-052 (VHH) VHH: VQLQESGGGLVQPGGSLRLSCAASGSIFIINTMGWYRQAPGKQRELVAAVTRGGSTNYADSVKGRFTISRDNAKNTVYLQMNSLRPEDTAVYYCHVDEVRQSSWTTSNLWGQGTQVTVSS", "label.value": "yes (1)"}
{"binder": "A4-092 (VHH) VHH: VQLQESGGGLVQTGGSLRLSCLASGSIFSINTMGWYRQRAGKQRELVATVTRAGSTNYADSVKGRFTISRDNAKNTVYLQMNSLRPEDTAVYYCHVDEIRESSWTTSNLWGQGTQVTVSS", "label.value": "no (0)"}
{"binder": "A4-094 (VHH) VHH: VQLQESGGGLVQPGGSLRLSCVASGSIFVINTMGWYRQAPGKQRELVATVTRDGGTNYADSVKGRFTISRDNAKNTVYLQMNSLRPEDTAVYYCHIDEIRESSWTTSNLWGQGTQVTVSS", "label.value": "no (0)"}
{"binder": "A4-076 (VHH) VHH: VQLQESGGGLVHSGGSLRLSCAASGSMFSLNTMGWYRQAPGKQRELVATITRGGGTSYADSVKGRFTISRDNAKNTVYLQMNSLRPEDTAVYYCHVDELRQSSWTTSNLWGQGTQVTVSS", "label.value": "yes (1)"}
{"binder": "A4-059 (VHH) VHH: VQLQESGGGAVQPGGSLRLSCAASGSHFSLNTMGWYRRAPGKQRELVATVTRGGSTNYADSVKGRFTISRDNAKNTIYLQMNSLRPEDTAVYYCHVDEVRQSTWTTSNLWGQGTQVTVSS", "label.value": "yes (1)"}
{"binder": "A4-079 (VHH) VHH: VQLQESGGGLVQPGGSLRLSCAASGTRFSINTMGWYRQAPGKQRELVANVTPAGSTNYADSVKGRFTISRDNAKNTVYLQMNSLRPEDTAVYYCHVDELRDSSWTTSNLWGQGTQVTVSS", "label.value": "yes (1)"}
{"binder": "A4-065 (VHH) VHH: VQLQESGGGLVQSGGSLRLSCAASGRNFSLNTVGWYRQAPGKQRELVATVTRGGSTNYAGSVKGRFTISRDNAKNTVYLQMNSLRPEDTAVYYCHVDEVRESSWTTSNLWGQGTQVTVSS", "label.value": "yes (1)"}
{"binder": "A4-093 (VHH) VHH: VQLQESGGGLVQTGGSLRLSCAASGSIFIINTMGWYRQRAGKQRELVATVTRGGSTNYADSVKGRFTISRDNAKNTVYLQMNTLRPEDTAVYYCHVDELRQSSWTTSNLWGQGTQVTVSS", "label.value": "yes (1)"}
